Reference source for all entries: a melting point compilation (Tetko et al.; mined from patent text by program, amines drawn as free bases though some values may be those of a salt)

# melting point annotations
Parameter measured: melting point

Smiles representation	Result
C#CCNC(=O)N1CC(Oc2ccc(Cl)cc2)C1	120 to 122 °C
CCOCc1nc2c(N)nc3ccccc3c2n1CCCCCS(=O)(=O)NCc1ccc(OC)cc1	177 to 178 °C
O=C(Nc1ccc(OCCCN2CCc3ccccc3C2)cc1)c1cccc2c(=O)c3ccccc3[nH]c12	182 °C
COCCOc1ccc(/C=C/C(=O)O)c(NC(=O)c2ccc(Cl)cc2Cl)c1	243 to 245 °C
CC[C@H](C)[C@H](NC(=O)O[C@@H](CC(C)C)C(=O)O)C(=O)NC(C)C	179 to 180 °C
COc1ccc2nc(-c3ccc(OC)c(F)c3)c(Cl)c(Br)c2c1	197 to 199 °C
C=CCON=C(C(=O)O)C1=CSCCO1	119 to 121 °C

====

# melting point annotations

Compound	melting point
O=C1CNC(=O)C(Cc2cccc(NCc3ccccc3)c2)N1 (stereo not drawn)	160 to 161 °C
COCCN(C)Cc1c(-c2ccc(NC(=O)NOC)cc2)sc2c1c(=O)n(-c1ccc3c(c1)OCCO3)c(=O)n2Cc1c(F)cccc1F	155 to 156 °C
CC(c1ccccc1)c1cc(C(=O)O)c(O)c(C(C)c2ccccc2)c1 (stereo not drawn)	147 to 150 °C

====

# melting point annotations

Molecule	melting point
COC(=O)c1sc(C(F)(F)F)cc1OCc1ccccc1	52 to 53.5 °C
CCCc1c(/C=C/c2ccccc2C)nc2ccc(C(=O)OC)cn2c1=O	190 to 193 °C
CCOC(=O)C(=COS(=O)(=O)c1ccc(C)cc1)c1ccccc1	159 to 160 °C
N#Cc1cc(C(F)(F)F)[nH]c1-c1ccsc1Br	170 °C
CC(C=O)c1ccc2cc(OCc3ccc4ccccc4n3)ccc2c1 (stereo not drawn)	113 to 115 °C
O=C(O)c1cc(-c2ccccc2F)ns1	191 to 192 °C
Nc1ccc(S(=O)(=O)CCO)cc1O	115 to 117 °C
CC(=O)c1cccn1[C@@H](Cc1ccc(OCCc2nc(-c3ccccc3)oc2C)cc1)C(=O)O	110 to 112 °C

====

Parameter measured: melting point

Compound	Result
CCOC(=O)c1c(N2CCN(c3ccccc3)CC2)c2ccc(C)nc2n(CC)c1=O	110 to 112 °C
COc1ccc(/C=C(\C#N)c2c(F)c(F)c(F)c(F)c2F)cc1OC1CCCC1	94.5 to 96 °C
O=C(OCCN1CCN(c2cccc(C(F)(F)F)c2)CC1)c1sccc1Nc1ccnc2cc(Cl)ccc12	80 °C
Cc1nnc(-c2ccc3occ(-c4cn[nH]c4)c3c2)o1	215 to 216 °C
CC(C)c1ccc(C(=O)C(c2ccccc2)C2CCCCC2)c(C(C)C)c1OS(N)(=O)=O (configuration not stated)	127 to 137 °C
CNC(=O)c1cc2c(nc(C)n2C)c2c1C[C@@H](O)[C@@H](c1ccccc1)N2	265 to 268 °C
O=C(O)CCCNc1ccccc1CNC(=O)C1Cc2ccccc2N1S(=O)(=O)c1ccc(-c2cccc(C(F)(F)F)c2)cc1 (configuration not stated)	77 to 81 °C
Cn1cc(-c2ccccc2)c(=O)c(-c2cccc(S(C)=O)c2)c1 (configuration not stated)	161 to 164 °C
CC1(COCc2ccccc2)COC(C)(C(=O)N(C(N)=O)c2ccccc2)O1 (configuration not stated)	91 to 94 °C
COc1cc(C=CC(=O)c2cc(OC)c(OC)c(OC)c2)cc([N+](=O)[O-])c1O	123 to 125 °C
C/C(=C\CCl)n1ncc(-c2ccc(S(N)(=O)=O)cc2)c(-c2ccc(F)cc2)c1=O	152 to 154 °C
O=C(NC1CCCCC1)NS(=O)(=O)c1cnccc1NC1CCCCCC1	165 to 169 °C

====

Compound	melting point (°C)
Cc1cc(C)nc(NC(=O)c2ccn3c2CSC3c2cccnc2)c1 (stereo not drawn)	171
CCSc1cc(N)c([N+](=O)[O-])cc1N	142

====

# melting point annotations

Compound	melting point
Oc1ccc(-c2cc3c(Br)c(O)cc(Br)c3o2)cc1	215 to 217 °C
Cc1ccc(S(=O)(=O)NCC(CC(=O)Nc2ccc(C(=O)O)cc2)c2ccccc2)cc1 (centres undefined)	225 to 227 °C
Cc1ccc(C2=NNC(=O)C3CC23)cc1 (centres undefined)	162 to 164 °C
O=C(Cl)c1cccnc1Nc1cccc(Cl)c1	112 to 115 °C
CC(=O)Nc1cc2c(cc1[N+](=O)[O-])[C@@H](O)[C@H](Br)C(C)(C)O2 (relative stereo)	205 to 206 °C
CCOC(=NC(=O)Nc1ccc(Oc2ncc(C(F)(F)F)cc2Cl)cc1)c1c(F)cccc1F	127 to 130 °C
CCCc1nc2c(N)nc3c(c2n1CCOCCS(C)(=O)=O)CCCC3	153 to 155 °C
CC(C)(C)COc1c(-c2ccc(S(N)(=O)=O)cc2)cnn(CC(F)(F)F)c1=O	123 to 124 °C
Cc1noc(NS(=O)(=O)c2ccccc2-c2ccc(-c3ncco3)cc2COCC(C)C)c1C	86 to 98 °C

====

# melting point annotations
Parameter measured: melting point

Compound	Parameter measured	Result
O=c1c2cccc3ncc(c(=O)n1CCCCCNS(=O)(=O)C(F)(F)F)n32	melting point	166 to 167 °C
CCn1cc(C(=O)NCc2ccc(Cl)cc2)c(=O)c2cc(CCCO)sc21	melting point	144 to 146 °C
CC1Cc2ccc(Br)cc2C(c2ccc([N+](=O)[O-])cc2)=NN1C(N)=O (stereo not given)	melting point	193 to 203 °C
COc1cc(C)ccc1Oc1ccc(Br)cc1C=O	melting point	89 to 90 °C
COc1cccc([C@H]2O[C@H](CC(=O)Nc3cccc(CCCC(=O)O)c3)C(=O)N(CC(C)(C)CO)c3ccc(Cl)cc32)c1OC	melting point	119 to 122 °C

====

# melting point annotations
Parameter measured: melting point

Molecule	Parameter measured	Result
COc1ccc(C(=O)Nc2ccc(-c3ccc4c(c3)OCO4)cc2)cc1CCCN(C)C	melting point	190 to 192 °C
CC1C=CC(C(=O)O)n2c(=O)n(CCC(=O)O)c(=O)n21 (stereo not drawn)	melting point	184 to 186 °C
Cc1cc2c3c(c1N)c(=O)c(C(=O)O)cn3C(C)CC2 (stereo not drawn)	melting point	264 to 266 °C

====

Parameter measured: melting point

Compound	Result
Cc1cc2c(cc1F)N(C(=O)Nc1cccnc1)CC2	203 to 205 °C
O=C1OC2(CCC(N3CCN(c4ccc(F)cc4)CC3)CC2)c2cc(F)ccc21 (stereo not given)	> 250 °C
CCOC(=O)c1ccc2cc[nH]c2c1	72 to 75 °C
CCCCCCNc1ccc([N+](=O)[O-])cc1C(=O)O	161 to 163 °C
Cc1c2c(cc3c(=O)c4c(F)cccc4oc13)CC(C(=O)O)O2 (stereo not given)	292 to 295 °C
COc1ccc(Cn2ncc3nc(Cl)nc(Cl)c32)cc1	100 to 101 °C
COc1cc(C(=O)N2CCCC2CO)c([N+](=O)[O-])cc1OC (stereo not given)	124 to 128 °C
O=C(O)/C(=C/C1CCCCC1)c1ccc(F)c(F)c1	119 to 121 °C
CCCc1c(OCCOc2cccc(Sc3ccc(C(=O)O)cc3)c2)ccc(C(C)=O)c1O	144 to 146 °C
C=C(C)/C=C(\NC(C)=O)C1(c2ccc(Cl)cc2)CCC1	120 °C
Cc1ncoc1-c1nc(-c2c(F)cccc2F)nn1C	113 to 115 °C
CCOC(=O)C1=C(C(F)(F)F)Nc2n[nH]cc2C1c1cccs1 (stereo not given)	157 to 161 °C
C[Si](C)(C)C#Cc1cn(C2CC(O)C(COC(c3ccccc3)(c3ccccc3)c3ccccc3)O2)c(=O)[nH]c1=O (stereo not given)	104 °C
O=C(O)c1cnc2cc(I)ccc2n1	242 to 244 °C
COC(=O)c1n[nH]cc1[N+](=O)[O-]	115 to 117 °C
CC=C(c1ccc(F)cc1)c1ccc(F)cc1	43 to 44 °C
CCCCc1nc2cc(-c3ccccc3)cc(C(=O)O)c2n1Cc1ccccc1Cl	236 to 238 °C
CN1CCCC1=C1C(=O)N(c2ccccc2)c2cc(Cl)ccc21	134 to 137 °C
COc1ccc(CCc2nnc(-c3ccc4[nH]ncc4c3)o2)cc1C(F)(F)F	192 to 193 °C
CCCCCCCCCCCCCCC(=O)C(=O)NC(C=CC(=O)O)CCCC (stereo not given)	65 to 67 °C
CCOC(=O)C1(C(=O)N(Cc2ccccc2)Cc2ccccc2)CC(=O)N(Cc2ccccc2)C1 (stereo not given)	112 to 115 °C
CCOC(=O)C1(c2ccccc2)CCN(c2ncccn2)CC1	119 to 120 °C
CCCC[C@H](NC(=O)[C@H](CC(C)C)NC(=O)c1ccc(F)c(F)c1F)C(=O)CSCc1ccco1	101 to 102 °C
CC(S(=O)(=O)c1ccc(OC(F)(F)F)cc1)S(=O)(=O)C(F)(F)F (stereo not given)	77 to 80 °C
O=C1NCCSC1Cc1ccc(OCc2ccccc2)cc1 (stereo not given)	126 to 128 °C
O=C(O)c1nc(-c2cc(Oc3ccc(Cl)cc3Cl)c(O)cc2Cl)no1	115 °C
CN=C(N)N(C)Cc1ccc(C2=NNC(=O)CC2C)cc1 (stereo not given)	190 to 192 °C
N#Cc1c(-c2ccccc2)cc(N2CCOCC2)nc1Cl	198 to 200 °C
CCCCS(=O)Cc1cc(C)c(CCl)cc1C (stereo not given)	112 °C
N#Cc1ccc2c(c1)NC(=O)C2c1ncnc2nn(C3CCCC3)cc12 (stereo not given)	340 to 344 °C
CCOc1ccc(-c2ccc3c(c2)C=C(C(=O)Nc2ccc(CN(C)C4CCOCC4)cc2)CCS3(=O)=O)cc1F	233 to 235 °C
CC1CCN(c2ccc([N+](=O)[O-])cc2C(=O)c2ccc(Cl)cc2)CC1	136 °C
CON1CCC2(CC1)C(O)=C(c1c(C)cc(C)cc1C)C(=O)N2CC1CC1	223 to 225 °C
C#CC(C)(O)c1ccc(Oc2ccc(Cl)cc2)cc1 (stereo not given)	55 to 57 °C
Clc1cccc(-c2nc3cccc(NCc4ccccn4)c3o2)c1	115 to 116 °C
Nc1ccc(-c2ccnc(-c3ccc(C(F)(F)F)cc3)n2)cc1	166 to 167 °C
Cc1ccc(S(=O)(=O)OCC2CCc3ccc4[nH]c(C(F)(F)F)nc4c3O2)cc1 (stereo not given)	160 °C
CC(C)c1sc2ncnc(N)c2c1-c1ccc([N+](=O)[O-])cc1	> 260 °C
O=C(c1ccc(SCCO)c([N+](=O)[O-])c1)c1ccc(SCCO)c([N+](=O)[O-])c1	193 to 197 °C
Cc1cc2sccc2c(N)n1	136 °C
